Biological target: Methionyl-tRNA synthetase, putative (Trypanosoma brucei brucei, UniProt Q38C91)
Sequence (Q38C91 whole entry): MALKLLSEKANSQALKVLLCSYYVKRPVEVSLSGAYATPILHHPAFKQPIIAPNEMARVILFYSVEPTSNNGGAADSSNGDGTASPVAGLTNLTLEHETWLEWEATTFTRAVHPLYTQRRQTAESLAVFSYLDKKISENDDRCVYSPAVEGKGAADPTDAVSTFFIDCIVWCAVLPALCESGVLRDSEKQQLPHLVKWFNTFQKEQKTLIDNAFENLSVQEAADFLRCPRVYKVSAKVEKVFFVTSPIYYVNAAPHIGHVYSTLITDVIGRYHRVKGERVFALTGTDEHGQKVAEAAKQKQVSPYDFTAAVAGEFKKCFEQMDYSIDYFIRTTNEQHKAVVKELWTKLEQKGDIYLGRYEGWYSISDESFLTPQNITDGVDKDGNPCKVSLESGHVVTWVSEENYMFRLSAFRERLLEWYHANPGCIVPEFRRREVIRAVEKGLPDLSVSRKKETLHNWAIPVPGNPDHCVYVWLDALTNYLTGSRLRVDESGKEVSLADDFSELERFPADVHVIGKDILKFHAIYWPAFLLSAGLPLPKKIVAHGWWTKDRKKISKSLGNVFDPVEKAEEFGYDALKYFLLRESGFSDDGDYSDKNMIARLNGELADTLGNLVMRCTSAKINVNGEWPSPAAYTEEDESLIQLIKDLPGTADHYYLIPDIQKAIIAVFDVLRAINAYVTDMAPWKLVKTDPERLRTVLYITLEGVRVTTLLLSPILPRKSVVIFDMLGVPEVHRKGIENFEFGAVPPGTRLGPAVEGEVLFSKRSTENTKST
Assay type: functional, Trypanosoma brucei brucei strain 927/4 GUTat10.1
The source made the active and inactive calls.
Response enum: active, inactive

In this assay, the call recorded for C/C(=N\Nc1nc2ccccc2[nH]1)c1ccc2c(c1)OCO2 was what?
inactive

Status in this test for Cc1ccc(NC(=O)CN(C)C(=O)c2cc(S(=O)(=O)N(C)C)ccc2N2CCCC2)cc1 ?
active

For CCOc1ccc(CONS(=O)(=O)c2ccc(NC(C)=O)cc2)cc1Cl , what call appears in the results of this test?
inactive

Called result for CCn1c(SCC(=O)c2c[nH]c3ccccc23)nc2cc(S(=O)(=O)N3CCOCC3)ccc21
active
